Can you tell me hGLP1 pEC50 (cAMP) for the items I'm about to list?
- Experimental target: human GLP-1 receptor (GLP-1R) (human, UniProt P43220 24-463)
- Sequence (P43220 24-463): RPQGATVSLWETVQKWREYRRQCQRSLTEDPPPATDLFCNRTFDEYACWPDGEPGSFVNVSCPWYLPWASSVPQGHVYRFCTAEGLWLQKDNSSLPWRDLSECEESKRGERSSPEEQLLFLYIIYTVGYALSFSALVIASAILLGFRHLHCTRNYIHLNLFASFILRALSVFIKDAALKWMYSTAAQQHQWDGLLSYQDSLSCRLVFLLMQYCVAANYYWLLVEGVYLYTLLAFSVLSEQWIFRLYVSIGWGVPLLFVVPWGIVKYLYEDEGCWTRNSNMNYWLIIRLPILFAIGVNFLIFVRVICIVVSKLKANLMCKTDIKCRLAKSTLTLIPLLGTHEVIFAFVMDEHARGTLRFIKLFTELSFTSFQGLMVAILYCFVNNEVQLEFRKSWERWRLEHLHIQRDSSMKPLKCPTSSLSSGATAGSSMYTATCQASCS
- Assay remarks: cell-based or functional assay
Where no end group is shown, it is not given here.

Example results:
* YSHGTFTSDYSKYLDSARAQEFVKWLEDEPSSGAPPPS-NH2 [Compound A5] | 5.8 pEC50
* YSQGTFTSDYSKYLDAARAQEFVKWLEDEPKSKSPPPS-NH2 [Compound A3] | 6.7 pEC50
* YTHGTFTSDYSKWLDSARAQEFVKWLEDEPSSGAPPPS-OH [Compound A39] | < 9 pEC50
* YSHGTFTSDYSKYLDSARAQEFVKWLEDEPKSKAPPPS-OH [Compound A71] | < 9 pEC50
* YSHGTFTSDYSKYLDQARAQEFVKWLEDEPSSGAPPPS-OH [Compound A44] | < 9 pEC50

// below: hGLP1 pEC50 (cAMP) requested for another binder
Return reported hGLP1 pEC50 (cAMP); argument: YSHGTFTSDYSKYLDKARAQEFVKWLEDEPSSGAPPPS-OH [Compound A43]
< 9 pEC50
